Origin of values: paper PMC5540273

%Inh overview
Test system: SGK2;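 also: KINOMEscan kinase panel screen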
Conditions: concentration: 1 μM, replicates: in singlicate; n = 1
Please give the number followed by its unit.

For orientation, consider the following solved cases.
COc1cc(Nc2nccc(N3CCC(NC(=O)c4cccc(NC(C)=O)c4)C3)n2)cc(OC)c1OC (stereo not drawn) [GSK1379754] | 0%
CCc1nc(-c2cccc(C)c2)c(-c2ccnc(NCc3ccccc3)c2)s1 | 4%
NS(=O)(=O)CCc1cccc(Nc2nccc(-c3c(-c4cccc(NC(=O)c5c(F)cccc5F)c4)nn4ccccc34)n2)c1 [GSK336735] | 0%
COCCNC(=O)c1ccc(-c2cc(C(=O)NC3CC3)cc(F)c2C)cc1 [GW868318] | 20%

Then there is this compound:
# return recorded %Inh for input "CSc1ccc(-c2cc3ncnc(SCC(=O)O)c3s2)cc1"
0%
